Task for the reader: assign each of the following compounds its reported EC50.
# Tested on: Human immunodeficiency virus 1
# assay-notes: Antiviral activity against wild type HIV1 3B infected in human MT4 cells assessed as inhibition of virus-induced cytopathic effect after 5 days by MTT assay
# Assay type: functional, cell-based
# setup-conditions: Human immunodeficiency virus 1, 3B, MT4, 120 h

{"columns": ["input-smiles", "result-value"],
 "data": [
  ["N#Cc1ccc(Nc2nccc(NS(=O)(=O)c3cc(C(F)(F)F)cc(C(F)(F)F)c3)n2)cc1", "> 115 µM"]
]}

Provide EC50 for all items below, preserving their order.
1. N#Cc1ccc(Nc2nccc(NS(=O)(=O)c3ccc(C(F)(F)F)cc3)n2)cc1
2. N#Cc1ccc(Nc2cc(NS(=O)(=O)c3cc(C(F)(F)F)cc(C(F)(F)F)c3)ccn2)cc1

Ans.
> 54.7 µM
> 62.2 µM

###

# Test system: Human immunodeficiency virus 1
# assay-notes: Antiviral activity against wild type HIV1 3B infected in human MT4 cells assessed as inhibition of virus-induced cytopathic effect after 5 days by MTT assay
# Format: functional, cell-based
# setup-conditions: Human immunodeficiency virus 1, 3B, MT4, 120 h
pEC50: −log10 of the molar value.
Task for the reader: assign each of the following compounds its reported pEC50.

{"columns": ["input-smiles", "reported-endpoint", "result-value"],
 "data": [
  ["CC(C)c1cc(C(C)C)c(S(=O)(=O)Nc2ccnc(Nc3ccc(C#N)cc3)c2)c(C(C)C)c1", "pEC50", "< 4.94"],
  ["Cc1cc(C)c(S(=O)(=O)Nc2ccnc(Nc3ccc(C#N)cc3)n2)c(C)c1", "pEC50", "< 5.36"],
  ["N#Cc1ccc(Nc2nccc(NS(=O)(=O)c3ccc(F)cc3)n2)cc1", "pEC50", "≤ 5.04"]
]}

Provide pEC50 for all items below, preserving their order.
1. Cc1cc(C)cc(S(=O)(=O)Nc2ccnc(Nc3ccc(C#N)cc3)c2)c1
2. N#Cc1ccc(Nc2cc(NS(=O)(=O)c3ccc(F)cc3)ccn2)cc1
3. N#Cc1ccc(Nc2cc(NS(=O)(=O)c3ccc(C(F)(F)F)cc3)ccn2)cc1
4. N#Cc1ccc(Nc2cc(NS(=O)(=O)c3cc(F)cc(F)c3)ccn2)cc1
5. CC(C)c1cc(C(C)C)c(S(=O)(=O)Nc2ccnc(Nc3ccc(C#N)cc3)n2)c(C(C)C)c1
6. N#Cc1ccc(Nc2cc(NS(=O)(=O)c3ccc(C#N)cc3)ccn2)cc1
7. N#Cc1ccc(Nc2cc(NS(=O)(=O)c3ccc4ccccc4c3)ccn2)cc1

Ans.
< 5.30
< 5.21
< 4.55
< 4.54
< 4.76
< 4.03
< 4.52
